Target: YRDCWT (human YRDC, ΔN43) (Homo sapiens, UniProt Q86U90, R253K)
Construct: lacks first 43 residues (N-terminal truncation); N-terminal His6 tag removed with TEV; E. coli BL21(DE3); homodimer
Sequence (Q86U90 44-279 R253K): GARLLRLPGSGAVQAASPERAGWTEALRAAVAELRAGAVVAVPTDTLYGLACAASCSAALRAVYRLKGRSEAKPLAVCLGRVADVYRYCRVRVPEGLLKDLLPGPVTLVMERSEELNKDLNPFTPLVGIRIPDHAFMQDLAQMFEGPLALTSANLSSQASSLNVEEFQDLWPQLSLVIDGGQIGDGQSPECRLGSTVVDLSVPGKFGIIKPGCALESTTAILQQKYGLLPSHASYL
Assay: biochemical
Conditions: With L-threonine; DSF apparent KD
measured attribute: Kd

Q) Using the record for Nc1ncnc2c1ncn2[C@@H]1O[C@H](COP(=O)(O)OP(=O)(O)OP(=O)(O)O)[C@@H](O)[C@H]1O , report its Kd.
A) 148 µM
